Here, each record is paired with measured Cell Count 7 d data.
Tested on: SK-MEL-28
Assay: Cell counting after 7 day peptide treatment
Format: cell-based, human
Conditions: modified (inhibitor/MMP2, MMP9 site) peptides, conc 10 µM, start count 10
Output: the number by itself.

Previously resolved entries follow.
TTGGSSPQGLEAKRPKKRKVRRRFNINDRIKELGTLIPKSNDPDMRWN [MITF-int1M]: 42
TTGGSSPQGLEAKRPKKRKVRRRKMQQLEQMLTALDQMRRSIVSELAGLLS [STAT3-int1M]: 42

I would be grateful if you could share the reported Cell Count 7 d for TTGGSSPQGLEAKRPKKRKVRRRQLMLEPYALDMSRIRVLSESLGLATQSG [Scr-int1M, reference compound] . 48

I would be grateful if you could share the reported Cell Count 7 d for TTGGSSPQGLEAKRPKKRKVRRRVKRPMNAFMVWAQAARRKLADQY [SOX10-int1M] . 35
